Test system: 958667-338-R-J2-PDC tumor spheroids viability;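 note: spheroids exposed to compounds for seven days before readout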
Experiment: Anticancer human tumor 958667-338-R-J2-PDC patient-derived colon adenocarcinoma cell line growth inhibition [PI3K]
Details: second compound 0.01 µM; first compound 0.0316 µM; stronger effect = lower value; spheroids with HUVEC and MSC
Recorded viability, T/C, one value per entry.
The response must be a number in % with no trailing unit.

Worked examples, 3 compounds total:
Compound	Study Target	viability, T/C / %
CCN1CCN(Cc2ccc(Nc3ncc(F)c(-c4cc(F)c5nc(C)n(C(C)C)c5c4)n3)nc2)CC1 + COc1c(OCCCN2CCOCC2)ccc2c3n(c(=NC(=O)c4cnc(N)nc4)nc12)CCN3	958667-338-R-J2-PDC tumor spheroids viability	87.8
CC(C)n1nc(-c2ccc3oc(N)nc3c2)c2c(N)ncnc21 + COc1c(OCCCN2CCOCC2)ccc2c3n(c(=NC(=O)c4cnc(N)nc4)nc12)CCN3	958667-338-R-J2-PDC tumor spheroids viability	74.7
C[C@@H](NC(=O)c1ncnc(N)c1Cl)c1ncc(C(=O)Nc2cc(C(F)(F)F)c(Cl)cn2)s1 + COc1c(OCCCN2CCOCC2)ccc2c3n(c(=NC(=O)c4cnc(N)nc4)nc12)CCN3	958667-338-R-J2-PDC tumor spheroids viability	96.3

Tell me reported viability, T/C for C[C@@H](NC(=O)c1ncnc(N)c1Cl)c1ncc(C(=O)Nc2cc(C(F)(F)F)c(Cl)cn2)s1 + CC(Nc1ccc2c(c1)OCCn1cc(N3C(=O)OCC3C(F)F)nc1-2)C(N)=O , tested with 958667-338-R-J2-PDC tumor spheroids viability.
118

Tell me reported viability, T/C for C#Cc1c(F)ccc2cc(O)cc(-c3ncc4c(N5CC6CCC(C5)N6)nc(OCC56CCCN5CC(F)C6)nc4c3F)c12 (stereo not given) + COc1c(OCCCN2CCOCC2)ccc2c3n(c(=NC(=O)c4cnc(N)nc4)nc12)CCN3 , tested with 958667-338-R-J2-PDC tumor spheroids viability.
93.4
